ASSAYED TARGET: T1, mouse PD-L1 on mPD-L1/CHO-K1 overexpressing cells (mouse, UniProt Q9EP73 19-290)
T1 construct: whole, on cells; also called mouse PD-L1-expressing cells
T1 sequence (Q9EP73 19-290): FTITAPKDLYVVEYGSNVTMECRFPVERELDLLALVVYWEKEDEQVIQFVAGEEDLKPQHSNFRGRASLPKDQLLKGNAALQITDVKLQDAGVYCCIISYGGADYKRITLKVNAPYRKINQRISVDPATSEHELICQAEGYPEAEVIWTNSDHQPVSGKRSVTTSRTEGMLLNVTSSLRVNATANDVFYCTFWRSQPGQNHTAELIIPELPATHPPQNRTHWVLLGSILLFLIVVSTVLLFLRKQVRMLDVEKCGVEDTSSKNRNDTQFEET
ASSAY SUMMARY: flow cytometry on mPD-L1/CHO-K1 cells (sheet label mPD-1/CHO-K1)
# maps each entry to its Mean, all events
Answer as a number with no unit attached.

Some binders with known Mean, all events results, for comparison:
>  <BINDER>
ME4.B12 anti-PD-L1 antibody (IgG form) (antibody, V domains shown) VH: QVQLVESGAEVKKPGSSVKVSCKASGGTFNNYAVSWVRQAPGQGLEWMGRIIPILGIANYAQTFQGRVTITADKSTTTAYMELSSLRSEDTAVYYCARSSFGYSVGAFDIWGQGTMVTVSS VL: QFVLTQPPSVSGAPGQRVTISCTGSSSNIGAGYDVHWYQQLPGTAPKVLIYGNSDRPSGVPDRFSGSKSGTSASLAITGLQGEDKATYYCQSYDSRLSGPVFGTGTKVTVLG

>  <Mean, all events>
9.1

$$$$
>  <BINDER>
ME4.A2 anti-PD-L1 antibody (IgG form) (antibody, V domains shown) VH: QVQLVESGAEVKKPGSSVKVSCKASGGTFNNYAVSWVRQAPGQGLEWMGRIIPILGIANYAQTFQGRVTITADKSTTTAYMELSSLRSEDTAVYYCARSSRGYAHGAFDIWGQGTMVTVSS VL: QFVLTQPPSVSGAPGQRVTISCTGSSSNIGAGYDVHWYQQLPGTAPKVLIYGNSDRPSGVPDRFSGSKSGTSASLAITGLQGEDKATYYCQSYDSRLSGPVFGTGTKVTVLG

>  <Mean, all events>
13.8

$$$$

In one line, give reported Mean, all events of the entry ME4.B10 anti-PD-L1 antibody (IgG form) (antibody, V domains shown) VH: QVQLVESGAEVKKPGSSVKVSCKASGGTFNNYAVSWVRQAPGQGLEWMGRIIPILGIANYAQTFQGRVTITADKSTTTAYMELSSLRSEDTAVYYCARSARGYAHGAFDIWGQGTMVTVSS VL: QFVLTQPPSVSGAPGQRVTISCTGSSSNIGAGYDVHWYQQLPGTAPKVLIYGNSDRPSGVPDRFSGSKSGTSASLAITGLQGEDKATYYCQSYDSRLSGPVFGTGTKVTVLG .
7.85

In one line, give reported Mean, all events of the entry ME4.A12 anti-PD-L1 antibody (IgG form) (antibody, V domains shown) VH: QVQLVESGAEVKKPGSSVKVSCKASGGTFNNYAVSWVRQAPGQGLEWMGRIIPILGIANYAQTFQGRVTITADKSTTTAYMELSSLRSEDTAVYYCARSHWGYAHGAFDIWGQGTMVTVSS VL: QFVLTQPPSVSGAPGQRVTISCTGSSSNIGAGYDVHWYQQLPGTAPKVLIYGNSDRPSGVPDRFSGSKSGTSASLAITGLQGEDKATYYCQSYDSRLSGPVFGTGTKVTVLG .
6.38

In one line, give reported Mean, all events of the entry ME4 anti-PD-L1 antibody (IgG form) (antibody, V domains shown, Converted to IgG with the vectors pIgGHD-6A6Hvy and pIgGLD-6A6Lgt; Expressed in Expi293F cells) VH: QVQLVESGAEVKKPGSSVKVSCKASGGTFNNYAVSWVRQAPGQGLEWMGRIIPILGIANYAQTFQGRVTITADKSTTTAYMELSSLRSEDTAVYYCARSYSGYAEGAFDIWGQGTMVTVSS VL: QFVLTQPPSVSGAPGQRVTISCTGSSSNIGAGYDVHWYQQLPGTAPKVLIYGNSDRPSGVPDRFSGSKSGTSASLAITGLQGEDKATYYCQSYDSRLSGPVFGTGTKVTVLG .
12.3

In one line, give reported Mean, all events of the entry ME4.A11 anti-PD-L1 antibody (IgG form) (antibody, V domains shown) VH: QVQLVESGAEVKKPGSSVKVSCKASGGTFNNYAVSWVRQAPGQGLEWMGRIIPILGIANYAQTFQGRVTITADKSTTTAYMELSSLRSEDTAVYYCARSRGGYAHGAFDIWGQGTMVTVSS VL: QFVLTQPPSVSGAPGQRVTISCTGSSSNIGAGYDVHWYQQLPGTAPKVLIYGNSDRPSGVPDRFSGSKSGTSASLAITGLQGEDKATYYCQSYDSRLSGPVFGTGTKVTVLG .
6.63
